Experiment: RAM pathway blockade in budding yeast – dse1pr::URA3 reporter, 5-FOA selection, pilot screen (AID 869);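 also: 0% = DMSO wells with no growth and 100% = 10 µM 1-NA-PP1 with full growth; RAM network block rescues cells from 5-FOA so hits raise OD615 growth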
Conditions: S. cerevisiae dse1pr::URA3 5-FOA growth, OD615, 2 d; at 10 µM; active compounds read high; strain carries analog-sensitive mutant Cbk1 kinase
What inhibition was measured for each of the following?
Give bare numbers, in %.

Cc1nc2sc(C(c3cccs3)N3CC(C)CC(C)C3)c(O)n2n1 (stereo unspecified)	1.53
CCN1C(=O)c2ccccc2S(=O)c2ccc(C(=O)NCc3ccccn3)cc21 (stereo unspecified)	1.95
COc1cccc2cc(C(=O)OC3CCN(C)CC3)c(=O)oc12	-0.245
CC1CCCN(c2ncnc3c2cnn3-c2ccccc2)C1 (stereo unspecified)	0.15
CCOC(=O)c1ccccc1NC(=O)c1cccnc1	1.57
COc1cc(NC(=O)C2C3C=CC(C3)C2C(=O)O)c(OC)cc1Cl (stereo unspecified)	2.7
CN(CCCNC(=O)c1cn(C)c2ccc(S(=O)(=O)N(C)C)cc2c1=O)c1ccccc1	0.395
CCOc1ccc(NC(=O)CSc2nc3c(c(=O)n2-c2ccccc2OC)SCC3)cc1	0.805
NC(=O)CSc1cn(CCNC(=O)c2cccs2)c2ccccc12	1.34
CCn1cc(C(=O)NCC2CCCO2)c2cc(OC)c(OC)cc2c1=O (stereo unspecified)	0.955

// each listed compound needs a value for inhibition
1. CN1CCN(c2cc(=O)n(-c3ccc(Cl)cc3)c(=O)[nH]2)CC1
2. N#Cc1nc(-c2ccc(F)cc2)oc1NCc1ccccc1

1. 0.42
2. 1.36

// each listed compound needs a value for inhibition
1. O=C(NCCN1CCN(c2ccccc2)CC1)c1ccc(NC(=O)C2CCCO2)cc1 (stereo unspecified)
2. COc1ccc(OC)c(NC(=O)CSc2nnc(Cc3cccn3C)n2-c2ccc(F)cc2)c1
3. CC(NC(=O)c1ccc(Cl)cc1)C(=O)N1CCCCC1 (stereo unspecified)
4. CC1(C)CC(=O)C(C=NCC2CCNCC2)=C(O)C1
5. CCCCCOc1ccc(C2NC(=O)NC2=O)cc1 (stereo unspecified)

1.66
-0.57
2.58
2.66
0.245

###

Test: RAM pathway blockade in budding yeast – dse1pr::URA3 reporter, 5-FOA selection, pilot screen (AID 869);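 also: 0% = DMSO wells with no growth and 100% = 10 µM 1-NA-PP1 with full growth; RAM network block rescues cells from 5-FOA so hits raise OD615 growth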
Conditions: S. cerevisiae dse1pr::URA3 5-FOA growth, OD615, 2 d; at 10 µM; active compounds read high; strain carries analog-sensitive mutant Cbk1 kinase
What inhibition was measured for each of the following?
Answers are plain numbers, in %.

Examples from the recorded data:
COC(=O)Cn1c(=O)c2c(nc3n2CC(C)CN3c2ccc(C)c(C)c2)n(C)c1=O (stereo not given)	1.25
CC1Cn2c(nnc2-c2ccc(F)cc2)S1 (stereo not given)	1.92
CN(C(=O)c1ccco1)c1nnc(C23CC4CC(CC(C4)C2)C3)s1	0.17
CCN1CCCC1CNC(=O)c1cc2c(=O)n(C)c3ccccc3c2n1C (stereo not given)	1.1
Cc1oc(-c2cccc(Cl)c2)nc1CN1CCC(C(=O)N2CCN(c3ccccc3F)CC2)CC1	1.05

// each listed compound needs a value for inhibition
1. COC(=O)Nc1c(C(=O)OC)cc(OC)c(OC)c1OC
2. CCOC(=O)N1CCC(NC(=O)c2cc3c(=O)n(C)c4ccccc4c3n2C)CC1
3. CC(C)(C)NC(=O)c1cnn2c1NC(c1ccc(F)cc1)CC2C(F)(F)F (stereo not given)

1. -0.495
2. 2.96
3. 3.81

// each listed compound needs a value for inhibition
1. COc1ccc(S(=O)(=O)N2CCC(C(=O)N3CCOCC3)CC2)cc1OC
2. O=C(NC1CCN(Cc2ccccc2)CC1)C1CCN(S(=O)(=O)c2cccc3cccnc23)CC1

1. 0.825
2. -0.18
